- Test system: EKVX
- Method notes: relative viability (nuclei count vs DMSO), 5 days (fraction); higher = more cells survive
- Measurement parameters: first compound 0.006325 µM
Listed next: entries and their corresponding relative viability.

[
  {
    "Compound": "CC(=O)O[C@@]12CO[C@@H]1C[C@H](O)[C@@]1(C)C(=O)[C@H](O)C3=C(C)[C@@H](OC(=O)[C@H](O)[C@@H](NC(=O)OC(C)(C)C)c4ccccc4)C[C@@](O)([C@@H](OC(=O)c4ccccc4)[C@H]21)C3(C)C [Docetaxel] + Cc1nc(NC(=O)N2CCC[C@H]2C(N)=O)sc1-c1ccnc(C(C)(C)C(F)(F)F)c1 [Alpelisib] (partner 2 µM)",
    "relative viability": 0.25
  },
  {
    "Compound": "CC(=O)O[C@@]12CO[C@@H]1C[C@H](O)[C@@]1(C)C(=O)[C@H](O)C3=C(C)[C@@H](OC(=O)[C@H](O)[C@@H](NC(=O)OC(C)(C)C)c4ccccc4)C[C@@](O)([C@@H](OC(=O)c4ccccc4)[C@H]21)C3(C)C [Docetaxel] + Cc1nc(Nc2ncc(C(=O)Nc3c(C)cccc3Cl)s2)cc(N2CCN(CCO)CC2)n1 [Dasatinib] (partner 0.075 µM)",
    "relative viability": 0.264
  },
  {
    "Compound": "CC(=O)O[C@@]12CO[C@@H]1C[C@H](O)[C@@]1(C)C(=O)[C@H](O)C3=C(C)[C@@H](OC(=O)[C@H](O)[C@@H](NC(=O)OC(C)(C)C)c4ccccc4)C[C@@](O)([C@@H](OC(=O)c4ccccc4)[C@H]21)C3(C)C [Docetaxel] + Nc1nc2[nH]cc(CCc3ccc(C(=O)N[C@@H](CCC(=O)O)C(=O)O)cc3)c2c(=O)[nH]1 [Pemetrexed] (partner 0.2 µM)",
    "relative viability": 0.209
  },
  {
    "Compound": "CC(=O)O[C@@]12CO[C@@H]1C[C@H](O)[C@@]1(C)C(=O)[C@H](O)C3=C(C)[C@@H](OC(=O)[C@H](O)[C@@H](NC(=O)OC(C)(C)C)c4ccccc4)C[C@@](O)([C@@H](OC(=O)c4ccccc4)[C@H]21)C3(C)C [Docetaxel] + N=C(N)NC(=N)NCCc1ccccc1 [Phenformin] (partner 250 µM)",
    "relative viability": 0.149
  },
  {
    "Compound": "CC(=O)O[C@@]12CO[C@@H]1C[C@H](O)[C@@]1(C)C(=O)[C@H](O)C3=C(C)[C@@H](OC(=O)[C@H](O)[C@@H](NC(=O)OC(C)(C)C)c4ccccc4)C[C@@](O)([C@@H](OC(=O)c4ccccc4)[C@H]21)C3(C)C [Docetaxel] + Cc1cc(Nc2cc(N3CCN(C)CC3)nc(Sc3ccc(NC(=O)C4CC4)cc3)n2)n[nH]1 [Tozasertib] (partner 0.1 µM)",
    "relative viability": 0.212
  },
  {
    "Compound": "CC(=O)O[C@@]12CO[C@@H]1C[C@H](O)[C@@]1(C)C(=O)[C@H](O)C3=C(C)[C@@H](OC(=O)[C@H](O)[C@@H](NC(=O)OC(C)(C)C)c4ccccc4)C[C@@](O)([C@@H](OC(=O)c4ccccc4)[C@H]21)C3(C)C [Docetaxel] + Nc1ncn([C@H]2C[C@H](O)[C@@H](CO)O2)c(=O)n1 [Decitabine] (partner 2 µM)",
    "relative viability": 0.198
  },
  {
    "Compound": "CC(=O)O[C@@]12CO[C@@H]1C[C@H](O)[C@@]1(C)C(=O)[C@H](O)C3=C(C)[C@@H](OC(=O)[C@H](O)[C@@H](NC(=O)OC(C)(C)C)c4ccccc4)C[C@@](O)([C@@H](OC(=O)c4ccccc4)[C@H]21)C3(C)C [Docetaxel] + C[C@@H](Oc1cc(-c2cnn(C3CCNCC3)c2)cnc1N)c1c(Cl)ccc(F)c1Cl [Crizotinib] (partner 1 µM)",
    "relative viability": 0.25
  }
]
